# melting point annotations

Worked examples follow.
>  <compound>
CCCCCCCCCCCCCCCCCCNC(=O)CCC(=O)OC [Compound 59, Methyl 4-(octadecylamino)-4-oxobutanoate]

>  <melting point>
86 to 87 °C

$$$$
>  <compound>
CCCCCCCCCCCCCCCCCCNC(=O)CCCO [Compound 62, 4-Hydroxy-N-octadecylbutanamide]

>  <melting point>
86 to 87 °C

$$$$
>  <compound>
CCCCCCCCCCCCCCCCCCN(CCCCCCCCCCCCCCCCCC)CC(=O)O

>  <melting point>
102 to 103 °C

$$$$

// returns reported melting point for input COc1ccc(C(OC[C@H]2O[C@@H](n3cnc4c(=O)n(C/C=C(\C)CCC=C(C)C)cnc43)C[C@@H]2O)(c2ccccc2)c2ccc(OC)cc2)cc1
74 °C

Measured values drawn from patent US20190175633A1 for this set.
